- system: T1, bacterially produced human IL-6 (human, UniProt P05231 30-212)
- T1 construct: Immobilised on the Biacore chip; also called BACT IL-6 (2-1); bactIL-6
- assayText: SPR (Biacore), periplasmic Fab
For each of the binders below, state its Ka.
One number for each entry, in M⁻¹.

Use these answered entries as a reference point.
>>> recordedresult("55A11 (Fab, V domains shown, Periplasmic Fab; Suffix 'd' of the label not explained; also called 55A11d) VH: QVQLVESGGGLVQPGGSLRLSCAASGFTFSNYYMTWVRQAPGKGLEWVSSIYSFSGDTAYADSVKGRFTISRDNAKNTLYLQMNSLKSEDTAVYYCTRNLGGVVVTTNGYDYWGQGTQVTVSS VL: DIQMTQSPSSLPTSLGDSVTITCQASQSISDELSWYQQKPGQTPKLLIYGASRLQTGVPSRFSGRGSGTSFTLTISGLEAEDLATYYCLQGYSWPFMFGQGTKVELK")
"2.78e+09"
>>> recordedresult("55E10 (Fab, V domains shown, Periplasmic Fab; Suffix 'g1' not explained; also called 55E10g1) VH: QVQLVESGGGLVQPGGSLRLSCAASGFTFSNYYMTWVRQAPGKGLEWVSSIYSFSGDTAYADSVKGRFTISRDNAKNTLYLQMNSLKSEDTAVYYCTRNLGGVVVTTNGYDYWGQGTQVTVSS VL: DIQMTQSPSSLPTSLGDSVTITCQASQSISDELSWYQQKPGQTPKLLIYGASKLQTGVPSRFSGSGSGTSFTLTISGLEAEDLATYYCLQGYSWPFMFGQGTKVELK")
"3.18e+09"
>>> recordedresult("48H1 (Fab, V domains shown, Periplasmic Fab; Suffix 'g2, R4' not explained; also called 48H1g2, R4) VH: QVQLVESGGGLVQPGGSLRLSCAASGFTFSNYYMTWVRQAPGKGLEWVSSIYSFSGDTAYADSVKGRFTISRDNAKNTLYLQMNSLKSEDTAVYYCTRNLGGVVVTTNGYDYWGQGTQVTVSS VL: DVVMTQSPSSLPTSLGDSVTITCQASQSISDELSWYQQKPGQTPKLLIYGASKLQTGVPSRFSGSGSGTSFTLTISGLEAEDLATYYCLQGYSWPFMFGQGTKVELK")
"2.93e+09"

Then there is this binder:
For 55C11 (Fab, V domains shown, Periplasmic Fab; Suffix 'f' not explained; also called 55C11f) VH: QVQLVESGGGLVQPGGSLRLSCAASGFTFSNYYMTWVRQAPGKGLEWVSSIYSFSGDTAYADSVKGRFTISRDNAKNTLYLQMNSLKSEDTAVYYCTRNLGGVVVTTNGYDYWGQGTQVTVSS VL: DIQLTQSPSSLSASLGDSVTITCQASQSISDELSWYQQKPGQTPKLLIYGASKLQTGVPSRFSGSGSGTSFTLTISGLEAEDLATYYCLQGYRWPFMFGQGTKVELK , what is its reported Ka?
3.29e+09
